# EXPERIMENT_SUMMARY: SGF digest of the 168 nutritive polypeptide library, intact protein by LC-MS/MS spectral counts
# Format: in vitro ADME
# MEASUREMENT_SETUP: proteins detected in the 168 nutritive polypeptide library
ENDPOINT_NAME: % Remaining at 10 min (%)
Write the value in % as a bare number.

SEQID-00485: nutritive polypeptide naturally produced in Chickpea, recombinantly expressed in E. coli (protein, listed as Cicer arietinum) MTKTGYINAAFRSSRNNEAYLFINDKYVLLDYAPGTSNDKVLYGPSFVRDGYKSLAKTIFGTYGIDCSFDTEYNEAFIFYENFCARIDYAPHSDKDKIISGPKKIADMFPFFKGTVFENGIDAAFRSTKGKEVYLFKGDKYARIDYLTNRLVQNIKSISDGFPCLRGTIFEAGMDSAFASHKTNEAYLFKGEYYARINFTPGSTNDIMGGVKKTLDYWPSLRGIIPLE
0

Please look up its % Remaining at 10 min: SEQID-00610: protein of the 168 nutritive polypeptide library (protein, listed as Saccharomyces cerevisiae, strain ATCC 204508 / S288c, protein of the 168 nutritive polypeptide library) MVLEATVLVIDNSEYSRNGDFPRTRFEAQIDSVEFIFQAKRNSNPENTVGLISGAGANPRVLSTFTAEFGKILAGLHDTQIEGKLHMATALQIAQLTLKHRQNKVQHQRIVAFVCSPISDSRDELIRLAKTLKKNNVAVDIINFGEIEQNTELLDEFIAAVNNPQEETSHLLTVTPGPRLLYENIASSPIILEEGSSGMGAFGGSGGDSDANGTFMDFGVDPSMDPELAMALRLSMEEEQQRQERLRQQQQQQDQPEQSEQPEQHQDK
3.3
